target: Sigma non-opioid intracellular receptor 1 (Rattus norvegicus); experiment: Displacement of [3H](+)-pentazocine from sigma 1 opioid receptor in rat liver homogenate; type: tissue-based
Sequence (Q9R0C9 whole entry): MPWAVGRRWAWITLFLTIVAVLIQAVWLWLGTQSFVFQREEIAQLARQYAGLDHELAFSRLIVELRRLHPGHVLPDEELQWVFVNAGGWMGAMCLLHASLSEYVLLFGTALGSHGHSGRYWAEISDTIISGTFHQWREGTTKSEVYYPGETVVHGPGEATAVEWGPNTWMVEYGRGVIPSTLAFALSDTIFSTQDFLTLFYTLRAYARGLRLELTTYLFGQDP
measured attribute: Ki (nM)
Report the value in nM with no unit label.

Exam item: Record request: Ki value, item COc1ccc2cc(/C(C)=C/CN(C)Cc3ccccc3)ccc2c1
Marked response: 13.7

Exam item: Tell me the measured Ki of COc1ccc2cc(C(C)(O)CCN(C)Cc3ccccc3)ccc2c1 (racemic) , please.
Marked response: 6.04

Exam item: Suppose we examine the molecule COc1ccc2cc(C(C)(O)CCN3CCCCC3)ccc2c1 (centres undefined) ; what Ki value has been reported?
Marked response: 10.4

Exam item: Entry COc1ccc2cc(C(C)CCN(C)C)ccc2c1 (racemic) has what Ki?
Marked response: 14.4
